pIC50: −log10 of the molar value.
Assay read-out pIC50; system under study: human SHMT1 (Homo sapiens (Human), UniProt P34896).
Sequence (P34896 whole entry): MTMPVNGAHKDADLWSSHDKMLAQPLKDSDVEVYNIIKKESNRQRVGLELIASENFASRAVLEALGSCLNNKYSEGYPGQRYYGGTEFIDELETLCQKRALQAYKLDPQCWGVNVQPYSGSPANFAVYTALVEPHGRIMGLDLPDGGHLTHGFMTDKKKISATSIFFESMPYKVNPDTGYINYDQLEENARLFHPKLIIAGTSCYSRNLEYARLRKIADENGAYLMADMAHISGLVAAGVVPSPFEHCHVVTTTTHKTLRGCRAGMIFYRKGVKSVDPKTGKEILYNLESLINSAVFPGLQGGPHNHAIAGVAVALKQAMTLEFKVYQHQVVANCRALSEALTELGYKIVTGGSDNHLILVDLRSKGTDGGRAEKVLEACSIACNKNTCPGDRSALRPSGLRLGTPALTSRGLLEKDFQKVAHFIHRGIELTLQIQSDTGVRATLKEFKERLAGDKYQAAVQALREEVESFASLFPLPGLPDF

- compound: "Cc1n[nH]c2c1C(c1cc(Cl)cc(Cl)c1)(C1CCC1)C(C#N)=C(N)O2 (centres unmarked) [HK-10]"
  pIC50: 6.23
- compound: "Cc1n[nH]c2c1C(c1cc(Cl)cc(Cl)c1)(C(C)C)C(C#N)=C(N)O2 (centres unmarked) [HK-14]"
  pIC50: 7.17

---

# experimental-protocol: LogP Value
# Assay type: physicochemical
Please note: logP exactly at 3 is Criterion not met. Only values below 3 get Criterion met.

- compound: "Cc1n[nH]c2c1C(c1cc(C#N)cc(C#CCCCO)c1)(C(C)C)C(C#N)=C(N)O2 (stereo not drawn) [Compound 71]"
  class-name: "Criterion met"
- compound: "Cc1n[nH]c2c1C(c1cc(C#CCCC(N)=O)cc(C(F)(F)F)c1)(C(C)C)C(C#N)=C(N)O2 (stereo not drawn) [Compound 11]"
  class-name: "Criterion not met"
- compound: "Cc1n[nH]c2c1C(c1cc(C#N)cc(C#CCCC(=O)O)c1)(C(C)C)C(C#N)=C(N)O2 (stereo not drawn) [Compound 68]"
  class-name: "Criterion met"
- compound: "Cc1n[nH]c2c1C(c1cc(C#CCCCN)cc(C(F)(F)F)c1)(C(C)C)C(C#N)=C(N)O2 (stereo not drawn) [Compound 8]"
  class-name: "Criterion met"
- compound: "Cc1n[nH]c2c1C(c1cc(C#CCCC(=O)O)cc(C(F)(F)F)c1)(C(C)C)C(C#N)=C(N)O2 (stereo not drawn) [Compound 4]"
  class-name: "Criterion not met"
- compound: "Cc1n[nH]c2c1C(c1cc(C#CCCC(=O)N[C@@H](CCC(=O)O)C(=O)O)cc(C(F)(F)F)c1)(C(C)C)C(C#N)=C(N)O2 (stereo partly drawn) [Compound 69]"
  class-name: "Criterion met"

The reported measurements were obtained from patent US10584132B2.
